# System: Mycobacterium tuberculosis
# Assay Text: Antibacterial activity against Mycobacterium bovis BCG under hypoxic condition after 14 days by MTT assay
# Format: functional
# Condition Parameters: variant bovis BCG, 336 h
Assay Metric: MIC (µg/mL)
Write it as a number; the unit µg/mL goes unstated.

Cc1cc(=O)n2c3c(c4c(cc13)c(CO)cc(=O)n4C)OC2    1

// switching to the query compound
Query :: Quick one: MIC of "Cc1cc(=O)n2c3c(c4c(cc13)c(COC(=O)CCCc1cn(CCOCCOCCOCCOCCOCCOCCOCCOCCOCCOCCNC(=O)CCCC[C@@H]3SC[C@@H]5NC(=O)N[C@@H]53)nn1)cc(=O)n4C)OC2" ?
Result :: 6.25
